system under test: T1, CD73 protein (UniProt P21589 27-549)
T1 construct: also called CD73-biotin
T1 sequence (looked up): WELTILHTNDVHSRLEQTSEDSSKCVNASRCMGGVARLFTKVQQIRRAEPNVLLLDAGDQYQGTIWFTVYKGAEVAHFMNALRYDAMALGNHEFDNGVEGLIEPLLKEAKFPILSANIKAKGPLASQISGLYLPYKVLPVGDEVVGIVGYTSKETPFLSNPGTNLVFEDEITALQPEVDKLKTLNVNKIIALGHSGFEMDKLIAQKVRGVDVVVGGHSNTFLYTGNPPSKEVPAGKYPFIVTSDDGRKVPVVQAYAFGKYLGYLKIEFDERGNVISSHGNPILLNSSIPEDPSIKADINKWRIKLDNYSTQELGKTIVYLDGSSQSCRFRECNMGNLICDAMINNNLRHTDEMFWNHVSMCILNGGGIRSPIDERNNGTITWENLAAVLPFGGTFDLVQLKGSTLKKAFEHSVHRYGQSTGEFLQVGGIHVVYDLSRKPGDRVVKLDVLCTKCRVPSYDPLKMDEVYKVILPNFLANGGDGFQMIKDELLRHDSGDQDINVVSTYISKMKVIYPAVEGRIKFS
procedure summary: Octet BLI; Ab-BN3 on protein A sensors, CD73 in solution
Below: a set of entries, each annotated with reported Kd.
Quick note: give the figure in nM, leave out the unit.

Sample records with Kd:
ABN3-2G-BN3 (antibody, V domains shown, not fully specified; position marked * in QQ*YTTPPT (light chain residue 91): unnatural amino acid (UAA) with azide, conjugated to BN3 (PSB12379-PEG3-DBCO), also called ABN3-2G Ab-BN3) VH: EVQLVESGGGLVQPGGSLRLSCAASGITFGSYTMSWVRQAPGKGLEWIGTVHYTGKTFYSPSLKSRVTISADTSKNTAYLQMNSLRAEDTAVYYCARGRDFGEPPYVRAFDIWGQGTLVTVSS VL: DIQMTQSPSSLSASVGDRVTITCQASHDISKYLNWYQQKPGKAPKLLIYDASNLETGVPSRFSGSRSGTDFTLTISSLQPEDFATYYCQQXYTTPPTFGQGTKLEI : 0.887
10D8-BN3 (antibody, V domains shown, position marked * in QQ*YTTPPT (light chain residue 91): unnatural amino acid (UAA) with azide, conjugated to BN3 (PSB12379-PEG3-DBCO), also called 10D8 Ab-BN3) VH: EVQLVESGGGLVQPGGSLRLSCAASGFTFSTYAIHWVRQAPGKGLEWVSSISGSGGGGGTYYADSVKGRFTISADTSKNTAYLQMNSLRAEDTAVYYCARDRGFLQFDYWGQGTLVTVSS VL: DIQMTQSPSSLSASVGDRVTITCRASQSISSWLAWYQQKPGKAPKLLIYDVSNVQTGVPSRFSGSRSGTDFTLTISSLQPEDFATYYCQQXYTTPPTFGQGTKLEI : 1.35
ABN3-2B-BN3 (antibody, V domains shown, not fully specified; position marked * in QQ*YTTPPT (light chain residue 91): unnatural amino acid (UAA) with azide, conjugated to BN3 (PSB12379-PEG3-DBCO), also called ABN3-2B Ab-BN3; ABN-2B) VH: EVQLVESGGGLVQPGGSLRLSCAASGFTFSSYWMHWVRQAPGKGLEWVSAVSGSGDSTYYADSVKGRFTISADTSKNTAYLQMNSLRAEDTAVYYCAREGDWGLDYWGQGTLVTVSS VL: DIQMTQSPSSLSASVGDRVTITCRASQGINNYLAWYQQKPGKAPKLLIYDASNLETGVPSRFSGSRSGTDFTLTISSLQPEDFATYYCQQXYTTPPTFGQGTKLEI : 3.16

Continue with the next binder.
# input Fill in: Kd of 10A7-BN3 (antibody, V domains shown, position marked * in QQ*YTTPPT (light chain residue 91): unnatural amino acid (UAA) with azide, conjugated to BN3 (PSB12379-PEG3-DBCO), also called 10A7 Ab-BN3) VH: EVQLVESGGGLVQPGGSLRLSCAASGFAFSSYSMSWVRQAPGKGLEWIGSIYYSGSTYYNPSLKSRVTISADTSKNTAYLQMNSLRAEDTAVYYCARNSGFETLDYWGQGTLVTVSS VL: DIQMTQSPSSLSASVGDRVTITCRASQGISRWLAWYQQKPGKAPNLLIYGASTLQSGVPPRFSGSRSGTDFTLTISSLQPEDFATYYCQQXYTTPPTFGQGTKLEI is ___
# output 0.888

Data origin: patent US20260151499A1
